Target: CDK12 (Homo sapiens)
Sequence (Q9NYV4 whole entry): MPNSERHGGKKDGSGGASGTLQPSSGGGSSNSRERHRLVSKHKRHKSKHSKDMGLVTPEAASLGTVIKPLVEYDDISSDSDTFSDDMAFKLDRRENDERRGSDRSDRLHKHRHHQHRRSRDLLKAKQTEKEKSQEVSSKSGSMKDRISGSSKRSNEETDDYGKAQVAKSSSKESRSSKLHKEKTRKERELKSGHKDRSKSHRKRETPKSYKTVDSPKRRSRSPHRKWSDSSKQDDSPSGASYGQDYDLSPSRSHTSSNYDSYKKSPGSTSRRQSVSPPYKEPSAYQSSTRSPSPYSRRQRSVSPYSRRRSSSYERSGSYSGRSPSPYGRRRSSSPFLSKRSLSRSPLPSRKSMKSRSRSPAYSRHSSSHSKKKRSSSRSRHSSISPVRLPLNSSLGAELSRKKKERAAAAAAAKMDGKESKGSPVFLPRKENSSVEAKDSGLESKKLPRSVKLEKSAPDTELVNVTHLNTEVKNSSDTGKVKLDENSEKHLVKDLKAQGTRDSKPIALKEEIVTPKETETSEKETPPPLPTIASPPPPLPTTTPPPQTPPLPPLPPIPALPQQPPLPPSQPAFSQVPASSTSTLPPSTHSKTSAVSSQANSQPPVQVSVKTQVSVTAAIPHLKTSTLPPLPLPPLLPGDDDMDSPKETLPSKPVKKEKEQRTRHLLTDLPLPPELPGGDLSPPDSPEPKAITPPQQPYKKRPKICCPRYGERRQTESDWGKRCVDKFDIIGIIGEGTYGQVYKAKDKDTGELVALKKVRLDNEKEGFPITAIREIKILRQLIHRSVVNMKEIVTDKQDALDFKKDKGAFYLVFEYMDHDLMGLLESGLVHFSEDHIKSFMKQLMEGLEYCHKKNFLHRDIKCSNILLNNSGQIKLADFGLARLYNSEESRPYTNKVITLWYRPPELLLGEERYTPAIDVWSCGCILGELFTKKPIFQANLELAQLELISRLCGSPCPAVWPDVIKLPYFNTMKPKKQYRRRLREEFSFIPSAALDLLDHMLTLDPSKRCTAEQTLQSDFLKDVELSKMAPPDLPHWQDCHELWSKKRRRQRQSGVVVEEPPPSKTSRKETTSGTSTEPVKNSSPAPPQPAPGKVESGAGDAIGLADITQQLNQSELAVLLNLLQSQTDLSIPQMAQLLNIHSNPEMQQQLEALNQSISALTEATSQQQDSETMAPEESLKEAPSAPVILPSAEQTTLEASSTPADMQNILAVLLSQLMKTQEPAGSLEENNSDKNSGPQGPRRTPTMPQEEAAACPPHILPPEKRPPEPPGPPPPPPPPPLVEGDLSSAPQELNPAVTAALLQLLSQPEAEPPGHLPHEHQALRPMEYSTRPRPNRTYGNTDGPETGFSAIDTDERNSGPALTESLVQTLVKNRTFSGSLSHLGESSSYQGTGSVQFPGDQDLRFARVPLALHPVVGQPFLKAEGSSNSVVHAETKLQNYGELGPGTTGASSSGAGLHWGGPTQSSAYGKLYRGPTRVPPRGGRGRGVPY
Sequence (O75909 whole entry partner): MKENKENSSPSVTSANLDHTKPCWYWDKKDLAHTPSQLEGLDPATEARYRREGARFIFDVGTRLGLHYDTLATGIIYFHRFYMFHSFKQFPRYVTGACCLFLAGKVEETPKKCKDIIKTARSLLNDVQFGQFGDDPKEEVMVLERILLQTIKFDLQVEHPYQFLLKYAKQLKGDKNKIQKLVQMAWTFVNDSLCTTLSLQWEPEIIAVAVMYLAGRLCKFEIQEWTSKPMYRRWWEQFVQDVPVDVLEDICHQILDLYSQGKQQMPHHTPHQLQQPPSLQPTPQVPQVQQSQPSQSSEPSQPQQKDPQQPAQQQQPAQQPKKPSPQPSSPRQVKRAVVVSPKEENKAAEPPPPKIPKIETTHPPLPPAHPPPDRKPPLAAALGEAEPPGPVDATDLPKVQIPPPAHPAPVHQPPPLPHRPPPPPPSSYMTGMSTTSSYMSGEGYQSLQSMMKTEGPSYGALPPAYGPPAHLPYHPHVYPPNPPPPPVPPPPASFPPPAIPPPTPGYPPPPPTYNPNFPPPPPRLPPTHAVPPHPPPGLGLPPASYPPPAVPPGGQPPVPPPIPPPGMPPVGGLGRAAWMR
Experiment: CDK12 degradation in MDA-MB-231 cells by immunoblotting
Format: cell-based
Parameters: Immunoblotting of CDK12 and CDK13 in MDA-MB-231 cells treated with increasing concentrations of ZLC491 for 15 h; endogenous in cells; host or cells: MDA-MB-231
Conditions: MDA-MB-231 cells, 0.3 μM, 15 h, immunoblotting, normalized against α-tubulin
OBSERVABLE: Protein Degradation (%DMSO control, 0.3 μM) CDK12 (%)
All answers are understood in %, so give the number only.

Example entries begin here.
# COMPOUND, MEASURED RESULT
records = [
    ("N#Cc1ccc(N[C@H]2CC[C@H](N(C(=O)NCc3ccccc3)c3ccc(N4CCN(C5CN(c6ccc7c(c6)C(=O)N(C6CCC(=O)NC6=O)C7=O)C5)CC4)cc3)CC2)nc1 (some centres unmarked)", 62),
    ("N#Cc1ccc(N[C@H]2CC[C@H](N(C(=O)NCc3ccccc3)c3ccc(N4CCC5(CC4)CCN(c4ccc6c(c4)C(=O)N(C4CCC(=O)NC4=O)C6=O)C5)cc3)CC2)nc1 (some centres unmarked)", 27),
    ("N#Cc1ccc(N[C@H]2CC[C@H](N(C(=O)NCc3ccccc3)c3ccc(N4CCN(CC5CN(c6ccc7c(c6)C(=O)N(C6CCC(=O)NC6=O)C7=O)C5)CC4)cc3)CC2)nc1 (some centres unmarked)", 60),
    ("N#Cc1ccc(N[C@H]2CC[C@H](N(C(=O)NCc3ccccc3)c3ccc(N4CCN(C(=O)C5CCN(c6ccc7c(c6)C(=O)N(C6CCC(=O)NC6=O)C7=O)C5)CC4)cc3)CC2)nc1 (some centres unmarked)", 61),
    ("N#Cc1ccc(N[C@H]2CC[C@H](N(C(=O)NCc3ccccc3)c3ccc(N4CCN(C5CCN(c6cc7c(cc6F)C(=O)N(C6CCC(=O)NC6=O)C7=O)CC5)CC4)cc3)CC2)nc1 (some centres unmarked)", 85),
    ("N#Cc1ccc(N[C@H]2CC[C@H](N(C(=O)NCc3ccccc3)c3ccc(N4CCN(C[C@@H]5CCN(c6ccc7c(c6)C(=O)N(C6CCC(=O)NC6=O)C7=O)C5)CC4)cc3)CC2)nc1 (some centres unmarked)", 50),
    ("N#Cc1ccc(N[C@H]2CC[C@H](N(C(=O)NCc3ccccc3)c3ccc(N4CCN(C5CCN(c6ccc7c(c6)C(=O)N(C6CCC(=O)NC6=O)C7=O)C5)CC4)cc3)CC2)nc1 (some centres unmarked)", 17),
    ("N#Cc1ccc(N[C@H]2CC[C@H](N(C(=O)NCc3ccccc3)c3ccc(N4CCC(CN5CCN(c6ccc7c(c6)C(=O)N(C6CCC(=O)NC6=O)C7=O)CC5)CC4)cc3)CC2)nc1 (some centres unmarked)", 49),
]

Request: Requested read-out Protein Degradation (%DMSO control, 0.3 μM) CDK12, target or system CDK12 (Homo sapiens), entry N#Cc1ccc(N[C@H]2CC[C@H](N(C(=O)NCc3ccccc3)c3ccc(N4CCN(CC5CCN(c6cc7c(cc6F)C(=O)N(C6CCC(=O)NC6=O)C7=O)CC5)CC4)cc3)CC2)nc1 (some centres unmarked)
Response: 53

Request: API: value(readout= Protein Degradation (%DMSO control, 0.3 μM) CDK12, system= CDK12 (Homo sapiens), query= N#Cc1ccc(N[C@H]2CC[C@H](N(C(=O)NCc3ccccc3)c3ccc(N4CCN(C(=O)C5CN(c6ccc7c(c6)C(=O)N(C6CCC(=O)NC6=O)C7=O)C5)CC4)cc3)CC2)nc1 (some centres unmarked) )
Response: 35

Request: Lookup: Protein Degradation (%DMSO control, 0.3 μM) CDK12 / CDK12 (Homo sapiens) / N#Cc1ccc(N[C@H]2CC[C@H](N(C(=O)NCc3ccccc3)c3ccc(N4CCN(CC5CCN(c6ccc7c(c6)C(=O)N(C6CCC(=O)NC6=O)C7=O)CC5)CC4)cc3)CC2)nc1 (some centres unmarked)
Response: 74
